# assay comment: Multiple component PK study in rat plasma after p.o. GDDP (HPLC-MS)
# experimental context: rat plasma, GDDP 0.8 g/kg p.o. (High dose group), n=3

{"columns": ["compound", "quantity unit", "Cltot"],
 "data": [
  ["CC(C)=CCC[C@](C)(O[C@@H]1O[C@H](CO[C@@H]2O[C@H](CO)[C@@H](O)[C@H](O)[C@H]2O)[C@@H](O)[C@H](O)[C@H]1O)[C@H]1CC[C@]2(C)[C@@H]1[C@H](O)C[C@@H]1[C@@]3(C)CC[C@H](O[C@@H]4O[C@H](CO)[C@@H](O)[C@H](O)[C@H]4O[C@@H]4O[C@H](CO)[C@@H](O)[C@H](O)[C@H]4O)C(C)(C)[C@@H]3CC[C@]12C [Rb1, ginsenoside Rb1]", "mL/min/kg", 43.2],
  ["Cc1coc2c1C(=O)C(=O)c1c-2ccc2c1CCCC2(C)C [TS IIA, tanshinone (TS) IIA]", "mL/min/kg", 585.2],
  ["C[C@H]1COC2=C1C(=O)C(=O)c1c2ccc2c1CCCC2(C)C [CTS, cryptotanshinone]", "mL/min/kg", 2924],
  ["CC(C)=CCC[C@](C)(O[C@@H]1O[C@H](CO)[C@@H](O)[C@H](O)[C@H]1O)[C@H]1CC[C@]2(C)[C@@H]1[C@H](O)C[C@@H]1[C@@]3(C)CC[C@H](O)C(C)(C)[C@@H]3[C@@H](O[C@@H]3O[C@H](CO)[C@@H](O)[C@H](O)[C@H]3O[C@@H]3OC[C@@H](O)[C@H](O)[C@H]3O)C[C@]12C [R1, notoginsenoside R1]", "mL/min/kg", 181.5],
  ["CC(C)=CCC[C@](C)(O[C@@H]1O[C@H](CO)[C@@H](O)[C@H](O)[C@H]1O)[C@H]1CC[C@]2(C)[C@@H]1[C@H](O)C[C@@H]1[C@@]3(C)CC[C@H](O[C@@H]4O[C@H](CO)[C@@H](O)[C@H](O)[C@H]4O[C@@H]4O[C@H](CO)[C@@H](O)[C@H](O)[C@H]4O)C(C)(C)[C@@H]3CC[C@]12C [Rd, ginsenoside Rd]", "mL/min/kg", 350.3],
  ["Cc1cccc2c3c(ccc12)C1=C(C(=O)C3=O)[C@@H](C)CO1 [DHTS I, dihydrotanshinone I]", "mL/min/kg", 47.7],
  ["Cc1coc2c1C(=O)C(=O)c1c-2ccc2c(C)cccc12 [TS I, tanshinone I]", "mL/min/kg", 163]
]}
